# Measured target: Xanthine dehydrogenase/oxidase (Bos taurus, UniProt P80457)
# Sequence (P80457 whole entry): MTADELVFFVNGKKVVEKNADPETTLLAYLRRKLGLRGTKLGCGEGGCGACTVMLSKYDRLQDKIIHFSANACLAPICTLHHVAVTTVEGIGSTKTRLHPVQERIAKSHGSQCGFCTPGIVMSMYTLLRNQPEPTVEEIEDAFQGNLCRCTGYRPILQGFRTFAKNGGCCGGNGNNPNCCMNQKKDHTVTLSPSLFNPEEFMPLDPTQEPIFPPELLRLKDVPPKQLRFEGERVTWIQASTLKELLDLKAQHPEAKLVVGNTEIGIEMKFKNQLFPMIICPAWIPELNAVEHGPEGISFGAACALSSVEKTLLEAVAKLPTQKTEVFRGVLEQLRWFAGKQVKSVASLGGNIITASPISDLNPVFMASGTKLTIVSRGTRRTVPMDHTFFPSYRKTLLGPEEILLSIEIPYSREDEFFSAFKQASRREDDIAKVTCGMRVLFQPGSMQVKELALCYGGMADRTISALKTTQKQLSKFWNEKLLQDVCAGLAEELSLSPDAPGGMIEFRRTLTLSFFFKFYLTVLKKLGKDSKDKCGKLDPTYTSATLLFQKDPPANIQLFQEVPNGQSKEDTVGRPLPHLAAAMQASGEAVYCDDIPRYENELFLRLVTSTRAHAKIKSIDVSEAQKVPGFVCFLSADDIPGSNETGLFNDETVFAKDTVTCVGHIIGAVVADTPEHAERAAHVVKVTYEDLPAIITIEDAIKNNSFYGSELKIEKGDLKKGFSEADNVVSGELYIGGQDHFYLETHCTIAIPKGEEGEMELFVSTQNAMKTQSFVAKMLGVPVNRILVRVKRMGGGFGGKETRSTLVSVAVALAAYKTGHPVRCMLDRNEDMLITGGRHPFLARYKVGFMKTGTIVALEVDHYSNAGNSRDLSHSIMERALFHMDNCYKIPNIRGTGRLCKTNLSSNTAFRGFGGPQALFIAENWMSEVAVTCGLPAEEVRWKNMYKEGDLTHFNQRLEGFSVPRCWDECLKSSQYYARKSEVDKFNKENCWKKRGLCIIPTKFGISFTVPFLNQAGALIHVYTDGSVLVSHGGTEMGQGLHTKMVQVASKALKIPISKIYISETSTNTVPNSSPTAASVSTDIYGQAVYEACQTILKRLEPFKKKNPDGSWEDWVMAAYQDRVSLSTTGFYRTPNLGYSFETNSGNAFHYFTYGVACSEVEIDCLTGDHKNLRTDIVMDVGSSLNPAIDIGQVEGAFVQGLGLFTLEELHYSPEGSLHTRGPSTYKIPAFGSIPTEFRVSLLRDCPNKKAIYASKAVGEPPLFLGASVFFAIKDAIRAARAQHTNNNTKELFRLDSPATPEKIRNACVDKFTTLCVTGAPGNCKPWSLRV
pIC50: −log10 of the molar value.
Measure: pIC50

I. Cc1nc(NCc2ccc(O)cc2)sc1C(=O)O
II. Cc1nc(NCc2ccc(O)c(O)c2)sc1C(=O)O
Lowest pIC50? choose I or II Mark your selection by writing its label.
II
(II: 4.22, I: 4.67)

====

Reported IC50 values for the following compounds.
# Measured target: Xanthine dehydrogenase/oxidase (Bos taurus, UniProt P80457)

Solved cases below.
Smiles str: Cc1nc(NCc2ccccc2O)sc1C(=O)O
Measured target: Xanthine dehydrogenase/oxidase (Bos taurus, UniProt P80457)
IC50: > 100 µM
--
Smiles str: Cc1nc(NCc2ccccc2Br)sc1C(=O)O
Measured target: Xanthine dehydrogenase/oxidase (Bos taurus, UniProt P80457)
IC50: > 100 µM

Continue with the next compound.
Given the entry Cc1ccc(CNc2nc(C)c(C(=O)O)s2)cc1 , report its measured IC50.
> 100 µM
